experiment: Stability in acidic aqueous solution; type: physicochemical; settings: HCl buffer (pH 1.2)
Assay Readout: half-life at 0.2 mg/mL (h)
Give a bare numeral; the unit h is implied.

Prompt: Consider the molecule O=c1ccn([C@@H]2O[C@H](COP(=O)(O)OP(=O)(O)OP(=O)(O)OC[C@H]3O[C@@H](n4ccc(=O)[nH]c4=O)[C@H](O)[C@@H]3O)[C@@H](O)[C@H]2O)c(=O)[nH]1 . State its measured half-life at 0.2 mg/mL.
Completion: 218

* * *

molecular target: UniProt:Q15077; test: PLC activation; type: cell-based; conditions: summary in words, Table 4
Assay Readout: Pharmacological properties at hP2Y6 receptor

Prompt: Consider the compound CCN(CC)CC.O=c1ccn([C@@H]2O[C@H](COP(=O)(O)OP(=O)(O)OP(=O)(O)O[C@H]3O[C@H](CO)[C@@H](O)[C@H](O)[C@H]3O)[C@@H](O)[C@H]2O)c(=O)[nH]1 [Compound 27] . State its measured Pharmacological properties at hP2Y6 receptor.
Completion: ~inactive

Prompt: Consider the compound CCN(CC)CC.O=c1ccn([C@@H]2O[C@H](COP(=O)(O)OP(=O)(O)OP(=O)(O)Oc3ccccc3)[C@@H](O)[C@H]2O)c(=O)[nH]1 [Compound 26] . State its measured Pharmacological properties at hP2Y6 receptor.
Completion: weak agonist, selective

Prompt: Consider the compound O=c1ccn([C@@H]2O[C@H](COP(=O)(O)OP(=O)(O)OP(=O)(O)O)[C@@H](O)[C@H]2O)c(=O)[nH]1 [Compound 17, uridine-5′-triphosphate, reference compound] . State its measured Pharmacological properties at hP2Y6 receptor.
Completion: ~inactive

Prompt: Consider the compound CCN(CC)CC.O=c1ccn([C@@H]2O[C@H](COP(=O)(O)CP(=O)(O)OP(=O)(O)O[C@H]3O[C@H](CO)[C@@H](O)[C@H](O)[C@H]3O)[C@@H](O)[C@H]2O)c(=O)[nH]1 [Compound 31] . State its measured Pharmacological properties at hP2Y6 receptor.
Completion: ~inactive

Now look at this entry.
Prompt: Consider the compound CCN(CC)CC.O=c1ccn([C@@H]2O[C@H](COP(=O)(O)CP(=O)(O)OP(=O)(O)OC[C@H]3O[C@@H](n4ccc(=O)[nH]c4=O)[C@H](O)[C@@H]3O)[C@@H](O)[C@H]2O)c(=O)[nH]1 [Compound 22] . State its measured Pharmacological properties at hP2Y6 receptor.
Completion: weak agonist, selective

* * *

molecular target: human P2Y6 receptor (Homo sapiens, UniProt Q15077); type: cell-based
Sequence (Q15077 whole entry): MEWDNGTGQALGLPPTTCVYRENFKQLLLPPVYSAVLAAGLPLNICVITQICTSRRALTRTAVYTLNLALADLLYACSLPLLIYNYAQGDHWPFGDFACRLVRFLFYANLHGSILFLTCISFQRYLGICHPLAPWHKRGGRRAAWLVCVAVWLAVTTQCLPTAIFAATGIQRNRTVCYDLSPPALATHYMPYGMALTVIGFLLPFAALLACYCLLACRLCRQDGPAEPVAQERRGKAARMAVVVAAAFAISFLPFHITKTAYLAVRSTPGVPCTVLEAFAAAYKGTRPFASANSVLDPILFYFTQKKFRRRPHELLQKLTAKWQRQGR
Assay Readout: EC50 (µM)
Give a bare numeral; the unit µM is implied.

Prompt: Consider the compound O=c1[nH]c(=O)n([C@@H]2O[C@H](COP(=O)(O)OP(=O)(O)O)[C@@H](O)[C@H]2O)cc1I . State its measured EC50.
Completion: 0.05

Prompt: Consider the compound CONc1ccn([C@@H]2O[C@H](COP(=O)(O)OP(=O)(O)OP(=O)(O)OC[C@H]3O[C@@H](n4ccc(NOC)nc4=O)[C@H](O)[C@@H]3O)[C@@H](O)[C@H]2O)c(=O)n1 . State its measured EC50.
Completion: 0.63

Prompt: Consider the compound O=c1ccn([C@@H]2O[C@H](COP(=O)(O)OP(=O)(O)O)[C@@H](O)[C@H]2O)c(=O)[nH]1 [Compound 1, uridine-5′-diphosphate] . State its measured EC50.
Completion: 0.2

Prompt: Consider the compound O=c1ccn([C@@H]2O[C@H](COP(=O)(O)OP(=O)(O)OP(=O)(O)OC[C@H]3O[C@@H](n4ccc(=O)[nH]c4=O)[C@H](O)[C@@H]3O)[C@@H](O)[C@H]2O)c(=O)[nH]1 . State its measured EC50.
Completion: 0.37

Prompt: Consider the compound CCN(CC)CC.CO/N=c1/ccn([C@@H]2O[C@H](COP(=O)(O)OP(=O)(O)OP(=O)(O)OC[C@H]3O[C@@H](n4ccc(=O)[nH]c4=O)[C@H](O)[C@@H]3O)[C@@H](O)[C@H]2O)c(=O)[nH]1 . State its measured EC50.
Completion: 0.083
